Measured IC50 by item
- target-under-test: Collagenase 3 (Homo sapiens, UniProt P45452)
- procedure-text: Inhibition of human recombinant MMP13
State just the number; it will be interpreted in nM.

Examples with answers:
CC#CCNc1ccc(S(=O)(=O)CC2(C(=O)NO)CCN(C(=O)N(CC)CC)CC2)cc1 | 772
CC#CCNc1ccc(S(=O)(=O)N2CCSC(C)(C)[C@@H]2C(=O)NO)cc1 | 30
CC#CCOc1ccc(S(=O)(=O)CC2(C(=O)NO)CCN(C(=O)OC(C)(C)C)CC2)cc1 | 135
CC#CCNc1ccc(S(=O)(=O)CC2(C(=O)NO)CCN(S(=O)(=O)C(C)C)CC2)cc1 | 2080

Field: next molecule
-- ask Field request: IC50 | item: CC#CCNc1ccc(S(=O)(=O)CC2(C(=O)NO)CCN(C(=O)C(C)CC)CC2)cc1 (stereo not given)
-- reply 2480

---

- target-under-test: Disintegrin and metalloproteinase domain-containing protein 17 (Homo sapiens, UniProt P78536)
- Sequence (P78536 whole entry, the tested form may be a part): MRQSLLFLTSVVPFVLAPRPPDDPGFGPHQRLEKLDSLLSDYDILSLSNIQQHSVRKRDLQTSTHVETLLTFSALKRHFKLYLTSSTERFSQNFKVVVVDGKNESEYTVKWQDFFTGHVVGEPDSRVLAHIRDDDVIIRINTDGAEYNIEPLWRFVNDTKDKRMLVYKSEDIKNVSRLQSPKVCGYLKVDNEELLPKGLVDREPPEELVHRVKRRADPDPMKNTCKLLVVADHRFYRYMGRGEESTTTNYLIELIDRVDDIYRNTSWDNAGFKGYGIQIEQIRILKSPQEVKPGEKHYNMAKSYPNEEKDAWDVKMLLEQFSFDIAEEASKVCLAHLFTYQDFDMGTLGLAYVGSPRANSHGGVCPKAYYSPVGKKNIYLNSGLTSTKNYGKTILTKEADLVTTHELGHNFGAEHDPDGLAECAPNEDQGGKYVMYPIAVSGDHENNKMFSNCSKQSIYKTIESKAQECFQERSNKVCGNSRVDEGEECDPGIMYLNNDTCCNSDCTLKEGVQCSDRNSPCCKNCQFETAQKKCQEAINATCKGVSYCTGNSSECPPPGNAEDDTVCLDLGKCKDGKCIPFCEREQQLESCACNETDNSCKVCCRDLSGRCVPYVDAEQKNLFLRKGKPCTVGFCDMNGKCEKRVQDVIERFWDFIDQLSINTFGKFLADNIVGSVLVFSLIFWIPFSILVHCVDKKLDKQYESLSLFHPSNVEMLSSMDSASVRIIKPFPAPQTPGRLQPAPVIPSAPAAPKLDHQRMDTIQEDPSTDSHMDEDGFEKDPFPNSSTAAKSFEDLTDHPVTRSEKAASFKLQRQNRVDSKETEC
- procedure-text: Inhibition of human TACE expressed in CHO cells by FRET assay
- Assay type: cell-based
Measured IC50 by item
State just the number; it will be interpreted in nM.

Examples with answers:
CC#CCNc1ccc(S(=O)(=O)CC2(C(=O)NO)CCN(C(=O)c3ccccc3C)CC2)cc1 | 2.5
CC#CCNc1ccc(S(=O)(=O)CC2(C(=O)NO)CCN(Cc3ccncc3)CC2)cc1 | 6.4
CC#CC(C)(C)Oc1ccc(S(=O)(=O)CC2(C(=O)NO)CCN(S(=O)(=O)C(C)C)CC2)cc1 | 27

-- ask Field request: IC50 | item: CC#CCNc1ccc(S(=O)(=O)CC2(C(=O)NO)CCNCC2)cc1
-- reply 64.5

-- ask Field request: IC50 | item: CC#CCNc1ccc(S(=O)(=O)CC2(C(=O)NO)CCN(C(=O)C(C)CC)CC2)cc1 (stereo unspecified)
-- reply 3.5

---

- target-under-test: Disintegrin and metalloproteinase domain-containing protein 17 (Homo sapiens, UniProt P78536)
- procedure-text: Inhibition of human TACE in human whole blood
pIC50: −log10 of the molar value.
pIC50 below 5 gives FALSE; pIC50 at or above it gives TRUE.

CC#CCNc1ccc(S(=O)(=O)CC2(C(=O)NO)CCN(C(=O)C(C)C)CC2)cc1 | TRUE
CC#CCNc1ccc(S(=O)(=O)CC2(C(=O)NO)CCN(S(=O)(=O)C(C)C)CC2)cc1 | TRUE
CC#CCOc1ccc(S(=O)(=O)CC2(C(=O)NO)CCN(C(=O)OC(C)(C)C)CC2)cc1 | FALSE
CC#CC(C)Oc1ccc(S(=O)(=O)CC2(C(=O)NO)CCN(S(=O)(=O)C(C)C)CC2)cc1 (stereo not given) | FALSE
CC#CCNc1ccc(S(=O)(=O)CC2(C(=O)NO)CCN(C(=O)N(CC)CC)CC2)cc1 | TRUE
CC(C)(C)OC(=O)N1CCC(CS(=O)(=O)c2ccc(NCC#CCO)cc2)(C(=O)NO)CC1 | FALSE
CC#CC(C)(C)Oc1ccc(S(=O)(=O)CC2(C(=O)NO)CCN(S(=O)(=O)C(C)C)CC2)cc1 | FALSE
CC#CCNc1ccc(S(=O)(=O)N2CCSC(C)(C)[C@@H]2C(=O)NO)cc1 | TRUE
CC#CCNc1ccc(S(=O)(=O)CC2(C(=O)NO)CCN(C(=O)c3ccccc3C)CC2)cc1 | TRUE
CC#CCNc1ccc(S(=O)(=O)CC2(C(=O)NO)CCN(C(=O)C(C)CC)CC2)cc1 (stereo not given) | TRUE

-- ask Could you please find out whether CC#CCN(C)c1ccc(S(=O)(=O)CC2(C(=O)NO)CCN(C(=O)OC(C)(C)C)CC2)cc1 has pIC50 that meets 5 or exceeds it?
-- reply FALSE

-- ask Could you please find out whether CC#CCOc1ccc(S(=O)(=O)CC2(C(=O)NO)CCN(S(=O)(=O)C(C)C)CC2)cc1 has pIC50 that meets 5 or exceeds it?
-- reply TRUE

-- ask Could you please find out whether CC#CCNc1ccc(S(=O)(=O)CC2(C(=O)NO)CCN(C(=O)OC(C)(C)C)CC2)cc1 has pIC50 that meets 5 or exceeds it?
-- reply FALSE

-- ask Could you please find out whether CC#CCOc1ccc(S(=O)(=O)N2CCSC(C)(C)[C@@H]2C(=O)NO)cc1 has pIC50 that meets 5 or exceeds it?
-- reply TRUE

---

- target-under-test: Disintegrin and metalloproteinase domain-containing protein 17 (Homo sapiens)
- procedure-text: Inhibition of human TACE expressed in CHO cells by FRET assay
- Type: cell-based
Measured IC50 by item
State just the number; it will be interpreted in nM.

Examples with answers:
CC#CCN(C)c1ccc(S(=O)(=O)CC2(C(=O)NO)CCN(C(=O)OC(C)(C)C)CC2)cc1 | 3.3
CC#CCNc1ccc(S(=O)(=O)CC2(C(=O)NO)CCN(C(=O)C(C)C)CC2)cc1 | 2.3
CC#CCOc1ccc(S(=O)(=O)CC2(C(=O)NO)CCN(C(=O)OC(C)(C)C)CC2)cc1 | 2

-- ask Field request: IC50 | item: CC#CC(C)Oc1ccc(S(=O)(=O)CC2(C(=O)NO)CCN(S(=O)(=O)C(C)C)CC2)cc1 (centres undefined)
-- reply 4

-- ask Field request: IC50 | item: CC#CCNc1ccc(S(=O)(=O)CC2(C(=O)NO)CCN(C(=O)OC(C)(C)C)CC2)cc1
-- reply 1.6

-- ask Field request: IC50 | item: CC#CCNc1ccc(S(=O)(=O)N2CCSC(C)(C)[C@@H]2C(=O)NO)cc1
-- reply 2.3

-- ask Field request: IC50 | item: CC(C)(C)OC(=O)N1CCC(CS(=O)(=O)c2ccc(NCC#CCO)cc2)(C(=O)NO)CC1
-- reply 10

-- ask Field request: IC50 | item: CC#CCNc1ccc(S(=O)(=O)CC2(C(=O)NO)CCN(S(=O)(=O)C(C)C)CC2)cc1
-- reply 2

-- ask Field request: IC50 | item: CC#CCOc1ccc(S(=O)(=O)CC2(C(=O)NO)CCN(S(=O)(=O)C(C)C)CC2)cc1
-- reply 3

---

- target-under-test: Collagenase 3 (Homo sapiens)
- procedure-text: Inhibition of human recombinant MMP13
IC50 less than 2000 nM is met; IC50 greater than or equal to 2000 nM is not met.

CC(C)(C)OC(=O)N1CCC(CS(=O)(=O)c2ccc(NCC#CCO)cc2)(C(=O)NO)CC1 | met
CC#CCNc1ccc(S(=O)(=O)CC2(C(=O)NO)CCN(Cc3ccncc3)CC2)cc1 | not met
CC#CCN(C)c1ccc(S(=O)(=O)CC2(C(=O)NO)CCN(C(=O)OC(C)(C)C)CC2)cc1 | met
CC#CCNc1ccc(S(=O)(=O)CC2(C(=O)NO)CCN(C(=O)c3ccccc3C)CC2)cc1 | met
CC#CC(C)(C)Oc1ccc(S(=O)(=O)CC2(C(=O)NO)CCN(S(=O)(=O)C(C)C)CC2)cc1 | not met

-- ask In the record for CC#CC(C)Oc1ccc(S(=O)(=O)CC2(C(=O)NO)CCN(S(=O)(=O)C(C)C)CC2)cc1 (stereo not drawn) , is IC50 less than 2000 nM?
-- reply not met

-- ask In the record for CC#CCNc1ccc(S(=O)(=O)CC2(C(=O)NO)CCN(C(=O)C(C)C)CC2)cc1 , is IC50 less than 2000 nM?
-- reply not met

-- ask In the record for CC#CCOc1ccc(S(=O)(=O)CC2(C(=O)NO)CCN(S(=O)(=O)C(C)C)CC2)cc1 , is IC50 less than 2000 nM?
-- reply met

---

- target-under-test: UniProt:P08253
- Sequence (P08253 whole entry): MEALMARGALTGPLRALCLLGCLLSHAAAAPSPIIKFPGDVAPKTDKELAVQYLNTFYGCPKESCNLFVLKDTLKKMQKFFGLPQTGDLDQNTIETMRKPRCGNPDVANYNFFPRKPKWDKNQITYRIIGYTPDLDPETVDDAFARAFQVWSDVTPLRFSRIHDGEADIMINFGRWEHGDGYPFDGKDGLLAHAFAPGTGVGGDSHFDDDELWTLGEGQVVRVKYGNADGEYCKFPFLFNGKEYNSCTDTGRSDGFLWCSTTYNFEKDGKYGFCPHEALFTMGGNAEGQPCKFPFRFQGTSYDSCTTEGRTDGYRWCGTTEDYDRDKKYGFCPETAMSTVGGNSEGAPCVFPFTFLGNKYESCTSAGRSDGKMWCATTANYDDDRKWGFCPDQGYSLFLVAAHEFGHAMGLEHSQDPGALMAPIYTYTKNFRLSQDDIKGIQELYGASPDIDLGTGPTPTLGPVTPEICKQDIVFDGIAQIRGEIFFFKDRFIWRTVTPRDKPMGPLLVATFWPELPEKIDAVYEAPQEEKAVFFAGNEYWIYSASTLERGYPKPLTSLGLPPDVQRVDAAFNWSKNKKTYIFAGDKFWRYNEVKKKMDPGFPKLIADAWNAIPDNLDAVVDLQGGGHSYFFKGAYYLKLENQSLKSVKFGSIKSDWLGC
- procedure-text: Inhibition of human recombinant MMP2
IC50 less than 300 nM is fulfilled; IC50 greater than or equal to 300 nM is not fulfilled.

CC#CCNc1ccc(S(=O)(=O)CC2(C(=O)NO)CCN(C(=O)c3ccccc3C)CC2)cc1 | fulfilled
CC(C)(C)OC(=O)N1CCC(CS(=O)(=O)c2ccc(NCC#CCO)cc2)(C(=O)NO)CC1 | not fulfilled
CC#CCNc1ccc(S(=O)(=O)CC2(C(=O)NO)CCN(C(=O)C(C)C)CC2)cc1 | not fulfilled

-- ask In the record for CC#CCNc1ccc(S(=O)(=O)CC2(C(=O)NO)CCN(Cc3ccncc3)CC2)cc1 , is IC50 less than 300 nM?
-- reply not fulfilled

-- ask In the record for CC#CC(C)Oc1ccc(S(=O)(=O)CC2(C(=O)NO)CCN(S(=O)(=O)C(C)C)CC2)cc1 (configuration not stated) , is IC50 less than 300 nM?
-- reply not fulfilled

-- ask In the record for CC#CCNc1ccc(S(=O)(=O)CC2(C(=O)NO)CCN(S(=O)(=O)C(C)C)CC2)cc1 , is IC50 less than 300 nM?
-- reply fulfilled

-- ask In the record for CC#CCOc1ccc(S(=O)(=O)CC2(C(=O)NO)CCN(S(=O)(=O)C(C)C)CC2)cc1 , is IC50 less than 300 nM?
-- reply fulfilled
